- Tested on: Hsp90 in HEPG2 lysate
- measurement.conditions: HepG2 lysate, 4.115 nM compound, raw
Define the label as condition met when FP signal is strictly less than 200 and as condition not met in all remaining cases.

See these solved cases before continuing.
{"columns": ["molecule", "label"],
 "data": [
  ["CCON=C1/C=C/C=C\\[C@H]2O[C@H]2C[C@@H](C)OC(=O)c2c(O)cc(O)c(Cl)c2C1 [compound 333]", "condition met"],
  ["Cc1ccc(CON=C2C=CC=CC3OC3CC(C)OC(=O)c3c(O)cc(O)c(Cl)c3C2)cc1 (mixture of isomers) [compound 218]", "condition not met"],
  ["COc1ccc(CON=C2C=CC=CC3OC3CC(C)OC(=O)c3c(O)cc(O)cc3C2)cc1 (stereo not drawn) [CMLD013075]", "condition not met"]
]}

Then this molecule:
Query block: Take the molecule COc1ccccc1CON=C1C=CC=CC2OC2CC(C)OC(=O)c2c(O)cc(O)c(Cl)c2C1 (mixture of isomers) [compound 226] and say whether its FP signal is less than 200.
Result block: condition not met

###

- subject.of.test: Hsp90 in C. albicans (SC5314) lysate (Candida albicans)
- Construct: endogenous in cells; host or cells: C. albicans SC5314 whole-cell lysate
- Sequence (P46598 whole entry): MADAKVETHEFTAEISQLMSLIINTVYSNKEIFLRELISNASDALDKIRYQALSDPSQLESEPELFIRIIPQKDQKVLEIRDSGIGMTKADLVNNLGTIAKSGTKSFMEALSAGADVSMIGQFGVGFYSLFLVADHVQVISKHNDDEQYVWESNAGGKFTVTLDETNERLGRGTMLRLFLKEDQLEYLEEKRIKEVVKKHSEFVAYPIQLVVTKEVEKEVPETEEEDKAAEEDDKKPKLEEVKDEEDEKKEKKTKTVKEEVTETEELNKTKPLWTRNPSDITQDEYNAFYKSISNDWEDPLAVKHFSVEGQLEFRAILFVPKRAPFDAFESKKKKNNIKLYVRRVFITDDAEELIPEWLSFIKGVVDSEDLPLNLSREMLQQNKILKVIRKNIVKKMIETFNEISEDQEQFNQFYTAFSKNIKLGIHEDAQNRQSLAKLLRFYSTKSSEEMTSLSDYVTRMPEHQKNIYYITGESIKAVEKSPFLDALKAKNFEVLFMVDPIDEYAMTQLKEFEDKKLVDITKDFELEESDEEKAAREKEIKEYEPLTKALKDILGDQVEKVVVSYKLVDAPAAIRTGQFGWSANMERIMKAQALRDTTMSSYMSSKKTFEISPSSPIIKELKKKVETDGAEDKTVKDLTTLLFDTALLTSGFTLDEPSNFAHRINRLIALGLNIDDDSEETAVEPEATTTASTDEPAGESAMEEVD
- protocol.notes: biochemical
- Type: binding
- measurement.conditions: SC5314 lysate, 0.457 nM compound, raw
Please respond with reported FP signal for every item in the list.
Numbers only.

The following compounds have reported results that may help.
{"columns": ["compound", "FP signal"],
 "data": [
  ["CC1CC2OC2C=CC=CC(=NOCc2ccccc2)Cc2c(Cl)c(O)cc(O)c2C(=O)O1 (mixture of isomers) [compound 217]", 197],
  ["CCON=C1/C=C/C=C\\[C@H]2O[C@H]2C[C@@H](C)OC(=O)c2c(O)cc(O)c(Cl)c2C1 [compound 333]", 168],
  ["COc1ccc(CON=C2C=CC=CC3OC3CC(C)OC(=O)c3c(O)cc(O)c(Cl)c3C2)cc1 (mixture of isomers) [compound 224]", 204]
]}

Next up:
Query block: Assign FP signal to the following record: CC1CC2OC2C=CC=CC(=NOCc2cccc(F)c2)Cc2c(Cl)c(O)cc(O)c2C(=O)O1 (mixture of isomers) [compound 227]
Result block: 194

###

- subject.of.test: human Grp94 NBD (Homo sapiens, UniProt P14625)
- Sequence (P14625 63-337): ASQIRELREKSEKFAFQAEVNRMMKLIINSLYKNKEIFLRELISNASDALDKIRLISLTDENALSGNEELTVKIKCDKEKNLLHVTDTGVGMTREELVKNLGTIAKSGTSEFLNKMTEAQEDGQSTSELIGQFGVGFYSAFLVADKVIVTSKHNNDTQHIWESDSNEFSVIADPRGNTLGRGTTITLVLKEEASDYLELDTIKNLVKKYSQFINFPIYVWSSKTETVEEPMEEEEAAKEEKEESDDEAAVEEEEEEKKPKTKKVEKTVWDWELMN
- measurement.conditions: 0.1 nM Cy3-GdA, Experiments 1-3, one value per experiment
measured.endpoint: pEC50
Numbers only, as −log10 of the molar value.

Query block: Assign pEC50 to the following record: COc1ccc(CON=C2C=CC=CC3OC3CC(C)OC(=O)c3c(O)cc(O)cc3C2)cc1 (mixture of isomers)
Result block: 6.58

###

- subject.of.test: Hsp90 in C. albicans (SC5314) lysate (Candida albicans)
- Construct: endogenous in cells; host or cells: C. albicans SC5314 whole-cell lysate
- protocol.notes: biochemical
- Assay type: binding
- measurement.conditions: SC5314 lysate, 0.063 uM
Please respond with reported FP signal (raw) for every item in the list.

The following compounds have reported results that may help.
{"columns": ["compound", "subject.of.test", "measurement"],
 "data": [
  ["COc1ccc(CON=C2C=CC=CC3OC3CC(C)OC(=O)c3c(O)cc(O)cc3C2)cc1 (mixture of isomers)", "Hsp90 in C. albicans (SC5314) lysate (Candida albicans)", 103],
  ["CC1(C)CC(=O)c2c(C(F)(F)F)nn(-c3ccc(C(N)=O)c(N[C@H]4CC[C@H](O)CC4)c3)c2C1", "Hsp90 in C. albicans (SC5314) lysate (Candida albicans)", 2],
  ["CCNC(=O)c1noc(-c2cc(C(C)C)c(O)cc2O)c1-c1ccc(CN2CCOCC2)cc1 [AUY922, reference compound]", "Hsp90 in C. albicans (SC5314) lysate (Candida albicans)", 1]
]}

Next up:
Query block: Give Hsp90 in C. albicans (SC5314) lysate (Candida albicans) FP signal (raw) for the following compound: COC1=C2C[C@@H](C)C[C@H](OC)[C@H](O)[C@@H](C)/C=C(\C)[C@H](OC(N)=O)[C@@H](OC)/C=C\C=C(/C)C(=O)NC(=CC1=O)C2=O [geldanamycin, reference compound]
Result block: 48
